The values you see were collected from ChEMBL document CHEMBL1133647.

# testMethodNotes: maximum concentration in plasma in preclinical species was measured after oral administration at the given dose (0.5 mg/kg) in monkey
# Assay type: ADME, organism-based
# Design: dose 0.5 mg/kg, route oral
# protocolConditions: simiiformes
readoutLabel: Cmax (ng/mL)
Quick reminder: number only, in ng/mL, skip the unit.

Need Cmax of `Cn1cc(C2=C(O)C(O)=C(c3ccccc3)C(=O)C2=O)c2ccccc21` , thanks.
7590

###

# testMethodNotes: maximum concentration in plasma in preclinical species was measured after oral administration at the given dose (0.5 mg/kg) in dog
# Assay type: ADME, organism-based, Canis lupus familiaris
# Design: dose 0.5 mg/kg, route oral
readoutLabel: Cmax
Record the result as a number with its unit.

State the recorded Cmax for this entry: `Cn1cc(C2=C(O)C(O)=C(c3ccccc3)C(=O)C2=O)c2ccccc21`
5270 ng/mL

###

# testMethodNotes: plasma clearance in preclinical species was measured after Intravenous administration at the given dose (0.05 mg/kg) in rat
# Assay type: ADME, organism-based
# protocolConditions: read-out: Clp
readoutLabel: clearance (mL/h/kg)
Only the number, expressed in mL/h/kg, is required.

Fill in: clearance of `Cn1cc(C2=C(O)C(O)=C(c3ccccc3)C(=O)C2=O)c2ccccc21` is ___
2.28

###

# testMethodNotes: area under curve in preclinical species was measured after Intravenous administration at the given dose (0.1 mg/kg) in dog
# Format: ADME, organism-based, Canis lupus familiaris
# protocolConditions: in vivo
readoutLabel: AUC
Write the numeric value and append its unit.

For the compound shown here, `Cn1cc(C2=C(O)C(O)=C(c3ccccc3)C(=O)C2=O)c2ccccc21` , give the reported AUC.
89800 ng·h/mL

###

# testMethodNotes: area under curve in preclinical species was measured after Intravenous administration at the given dose (0.05 mg/kg) in rat
# Assay type: ADME, organism-based
# protocolConditions: in vivo
readoutLabel: AUC (ng·h/mL)
Only the number, expressed in ng·h/mL, is required.

Data request, read-out AUC, for `Cn1cc(C2=C(O)C(O)=C(c3ccccc3)C(=O)C2=O)c2ccccc21`
21800

###

# testMethodNotes: maximum concentration in plasma in preclinical species was measured after oral administration at the given dose (0.5 mg/kg) in rat
# Type: ADME, organism-based
# Set-up: dose 0.5 mg/kg, route oral
readoutLabel: Cmax (ng/mL)
Please respond with the number in ng/mL and leave the unit unwritten.

Could you tell me which Cmax is on file for `Cn1cc(C2=C(O)C(O)=C(c3ccccc3)C(=O)C2=O)c2ccccc21` ?
4880

###

# testMethodNotes: bioavailability in preclinical species was measured after oral administration at the given dose (0.5 mg/kg) in monkey
# Assay type: ADME, organism-based
# protocolConditions: primates, in vivo
readoutLabel: bioavailability (%)
Give the value in % but do not write % after it.

State the recorded bioavailability for this entry: `Cn1cc(C2=C(O)C(O)=C(c3ccccc3)C(=O)C2=O)c2ccccc21`
66.5

###

# testMethodNotes: Time taken for maximum concentration in preclinical species was measured after oral administration at the given dose (0.5 mg/kg) in rat
# Format: ADME, organism-based
# protocolConditions: in vivo
readoutLabel: Tmax (h)
Field format: number, assumed h, no unit text.

State the recorded Tmax for this entry: `Cn1cc(C2=C(O)C(O)=C(c3ccccc3)C(=O)C2=O)c2ccccc21`
10

###

# testMethodNotes: area under curve in preclinical species was measured after oral administration at the given dose (0.5 mg/kg) in monkey
# Assay type: ADME, organism-based
# protocolConditions: simiiformes, in vivo
readoutLabel: AUC (µg·h/mL)
Quick reminder: number only, in µg·h/mL, skip the unit.

Which AUC is listed for `Cn1cc(C2=C(O)C(O)=C(c3ccccc3)C(=O)C2=O)c2ccccc21` ?
278

###

# testMethodNotes: terminal half life in preclinical species was measured after Intravenous administration at the given dose (0.05 mg/kg) in rat
# Assay type: ADME, organism-based
# protocolConditions: in vivo
readoutLabel: half-life (h)
Please respond with the number in h and leave the unit unwritten.

Could you share which half-life value was measured for `Cn1cc(C2=C(O)C(O)=C(c3ccccc3)C(=O)C2=O)c2ccccc21` ?
32

###

# testMethodNotes: volume of distribution in preclinical species was measured after Intravenous administration at the given dose (0.05 mg/kg) in rat
# Type: ADME, organism-based
# protocolConditions: in vivo, read-out: Vdss
readoutLabel: Vd (L/kg)
The answer is to be given in L/kg; state only the numeric part.

Quick one: Vd of `Cn1cc(C2=C(O)C(O)=C(c3ccccc3)C(=O)C2=O)c2ccccc21` ?
0.1

###

# testMethodNotes: area under curve in preclinical species was measured after Intravenous administration at the given dose (0.01 mg/kg) in monkey
# Assay type: ADME, organism-based
# protocolConditions: simiiformes, in vivo
readoutLabel: AUC (ng·h/mL)
Hi! Could you send only the number? It should be in ng·h/mL, unit omitted.

// returns reported AUC for input `Cn1cc(C2=C(O)C(O)=C(c3ccccc3)C(=O)C2=O)c2ccccc21`
8370

###

# tgt: Epidermal growth factor receptor (Homo sapiens)
# testMethodNotes: Percent epidermal growth factor receptor (EGFR) activity at 30 uM (NS = less than 5% activation)
# Assay type: functional
Active and inactive are the calls of the source.
readoutLabel: Activation

O=C1C(O)=C(c2coc3ccccc23)C(=O)C(O)=C1c1ccccc1: inactive
O=C1C(O)=C(c2csc3ccccc23)C(=O)C(O)=C1c1ccccc1: inactive
COc1ccc(C2=C(O)C(O)=C(c3ccccc3)C(=O)C2=O)cc1: inactive
Cn1cc(C2=C(O)C(O)=C(c3ccccc3)C(=O)C2=O)c2ccccc21: inactive

###

# tgt: Insulin-like growth factor 1 receptor (Homo sapiens) (UniProt P08069)
# Sequence (P08069 31-736 limits assumed): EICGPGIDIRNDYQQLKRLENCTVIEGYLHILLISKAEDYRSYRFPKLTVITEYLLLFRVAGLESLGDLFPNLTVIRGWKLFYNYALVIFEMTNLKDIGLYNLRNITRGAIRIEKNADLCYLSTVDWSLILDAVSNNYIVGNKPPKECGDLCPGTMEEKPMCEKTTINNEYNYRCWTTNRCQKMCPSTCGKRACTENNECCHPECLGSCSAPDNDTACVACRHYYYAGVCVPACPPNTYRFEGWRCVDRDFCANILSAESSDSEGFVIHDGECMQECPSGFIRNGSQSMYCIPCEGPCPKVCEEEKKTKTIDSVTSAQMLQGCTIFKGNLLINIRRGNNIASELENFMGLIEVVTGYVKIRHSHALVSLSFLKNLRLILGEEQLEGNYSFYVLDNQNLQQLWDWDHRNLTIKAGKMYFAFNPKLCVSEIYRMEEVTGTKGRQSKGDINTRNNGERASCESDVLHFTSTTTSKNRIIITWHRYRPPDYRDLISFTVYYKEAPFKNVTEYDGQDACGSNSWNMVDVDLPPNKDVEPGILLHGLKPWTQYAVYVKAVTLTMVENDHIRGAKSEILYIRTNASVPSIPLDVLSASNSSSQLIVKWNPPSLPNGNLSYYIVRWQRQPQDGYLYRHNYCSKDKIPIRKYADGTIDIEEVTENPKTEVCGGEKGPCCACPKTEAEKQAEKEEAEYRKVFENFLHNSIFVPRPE
# Sequence (P08069 741-1367 limits assumed): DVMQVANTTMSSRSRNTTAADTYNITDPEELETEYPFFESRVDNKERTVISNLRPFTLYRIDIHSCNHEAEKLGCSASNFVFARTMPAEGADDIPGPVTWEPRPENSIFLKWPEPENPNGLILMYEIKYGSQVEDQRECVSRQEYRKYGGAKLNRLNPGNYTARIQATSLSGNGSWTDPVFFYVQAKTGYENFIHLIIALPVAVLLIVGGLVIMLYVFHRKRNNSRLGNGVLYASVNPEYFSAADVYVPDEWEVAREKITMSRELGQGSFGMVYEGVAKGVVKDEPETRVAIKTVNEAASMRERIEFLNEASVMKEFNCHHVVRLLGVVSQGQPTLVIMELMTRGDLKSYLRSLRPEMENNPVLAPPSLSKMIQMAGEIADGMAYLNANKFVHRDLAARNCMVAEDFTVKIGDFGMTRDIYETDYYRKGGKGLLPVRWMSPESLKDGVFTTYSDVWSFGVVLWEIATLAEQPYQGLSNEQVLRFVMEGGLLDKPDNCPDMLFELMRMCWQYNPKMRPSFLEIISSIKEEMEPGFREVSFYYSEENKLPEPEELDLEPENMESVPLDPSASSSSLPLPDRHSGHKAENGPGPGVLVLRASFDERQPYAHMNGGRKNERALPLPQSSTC
# testMethodNotes: Percent insulin like growth factor receptor(IGFIR) activity at 30 uM (NS = less than 5% activation)
# Type: functional
Calls of active or inactive are those of the source.
readoutLabel: Activation

In the examples that follow, each entry is paired with its recorded Activation.
Cn1cc(C2=C(O)C(O)=C(c3ccccc3)C(=O)C2=O)c2ccccc21: inactive
O=C1C(O)=C(c2ccc3ccccc3c2)C(=O)C(O)=C1c1ccccc1: inactive
O=C1C(O)=C(c2coc3ccccc23)C(=O)C(O)=C1c1ccccc1: inactive
O=C1C(O)=C(c2cccc3ccccc23)C(=O)C(O)=C1c1ccccc1: inactive

Now for the molecule whose Activation we want.
Reported Activation for `O=C1C(O)=C(c2csc3ccccc23)C(=O)C(O)=C1c1ccccc1` : what is it?
inactive

###

# tgt: Insulin receptor (Homo sapiens, UniProt P06213)
# Sequence (P06213 28-758 limits assumed): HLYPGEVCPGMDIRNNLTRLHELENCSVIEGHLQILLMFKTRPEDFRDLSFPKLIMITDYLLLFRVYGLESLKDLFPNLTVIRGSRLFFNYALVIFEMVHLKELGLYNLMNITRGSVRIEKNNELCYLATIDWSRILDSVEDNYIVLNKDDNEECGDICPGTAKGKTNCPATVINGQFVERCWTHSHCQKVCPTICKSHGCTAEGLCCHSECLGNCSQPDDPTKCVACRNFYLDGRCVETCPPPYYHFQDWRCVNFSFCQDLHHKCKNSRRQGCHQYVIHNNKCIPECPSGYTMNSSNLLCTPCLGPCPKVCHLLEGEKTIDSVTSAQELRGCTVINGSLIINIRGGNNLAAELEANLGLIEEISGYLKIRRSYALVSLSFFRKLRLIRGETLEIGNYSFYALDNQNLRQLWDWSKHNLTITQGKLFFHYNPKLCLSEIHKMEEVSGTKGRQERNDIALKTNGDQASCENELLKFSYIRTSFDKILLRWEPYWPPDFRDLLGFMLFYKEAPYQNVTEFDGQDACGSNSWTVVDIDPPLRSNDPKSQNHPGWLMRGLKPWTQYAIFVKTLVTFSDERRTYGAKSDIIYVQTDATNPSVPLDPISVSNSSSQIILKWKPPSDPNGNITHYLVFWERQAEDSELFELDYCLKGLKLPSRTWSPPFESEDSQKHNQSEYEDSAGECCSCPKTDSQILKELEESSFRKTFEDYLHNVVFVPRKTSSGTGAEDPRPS
# Sequence (P06213 763-1382 limits assumed): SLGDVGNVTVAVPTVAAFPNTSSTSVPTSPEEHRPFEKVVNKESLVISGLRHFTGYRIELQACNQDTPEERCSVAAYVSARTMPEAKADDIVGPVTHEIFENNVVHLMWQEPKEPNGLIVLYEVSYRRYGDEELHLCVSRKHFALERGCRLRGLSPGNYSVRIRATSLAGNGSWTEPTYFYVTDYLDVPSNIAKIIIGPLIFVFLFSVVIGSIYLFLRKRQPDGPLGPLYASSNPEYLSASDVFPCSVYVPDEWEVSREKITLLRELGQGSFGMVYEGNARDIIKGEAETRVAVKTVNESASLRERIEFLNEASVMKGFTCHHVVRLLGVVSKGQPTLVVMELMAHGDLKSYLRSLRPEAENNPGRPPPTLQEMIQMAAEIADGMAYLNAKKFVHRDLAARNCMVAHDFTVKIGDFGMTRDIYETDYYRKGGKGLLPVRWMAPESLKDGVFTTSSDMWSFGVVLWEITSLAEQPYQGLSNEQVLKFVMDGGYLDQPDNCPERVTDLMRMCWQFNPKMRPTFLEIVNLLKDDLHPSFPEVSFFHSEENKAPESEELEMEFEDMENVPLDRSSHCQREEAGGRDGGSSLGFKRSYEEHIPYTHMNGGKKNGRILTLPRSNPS
# testMethodNotes: Activation of human insulin receptor tyrosine kinase (IRTK)
As shown below, each of these compounds has a reported EC50 value.
Please reply with the bare figure in µM and do not write the unit itself.

Cn1cc(C2=C(O)C(O)=C(c3ccccc3)C(=O)C2=O)c2ccccc21: 0.3
C=CC(C)(C)c1[nH]c2ccccc2c1C1=C(O)C(O)=C(c2c[nH]c3c(CC=C(C)C)cccc23)C(=O)C1=O: 5
O=C1C(O)=C(c2cccc3ccccc23)C(=O)C(O)=C1c1ccccc1: 6
Cc1cccc2c(C3=C(O)C(O)=C(c4c[nH]c5ccccc45)C(=O)C3=O)c[nH]c12: 7
O=C1C(O)=C(c2c[nH]c3ccccc23)C(=O)C(O)=C1c1ccccc1: 0.3

Record request: EC50 value, item `O=C1C(O)=C(c2csc3ccccc23)C(=O)C(O)=C1c1ccccc1`
1

Which EC50 value belongs to `O=C1C(O)=C(c2coc3ccccc23)C(=O)C(O)=C1c1ccccc1` ?
1.5

Requested field: EC50. Item: `O=C1C(O)=C(c2ccc3ccccc3c2)C(=O)C(O)=C1c1ccccc1`
30
